# Target Under Test: HIV-1 Env of KER2018.11 (HIV-1)
# Experiment Description: cell-based or functional assay
Recorded Endpoint: neutralization IC50

Okay, here is my list. What is neutralization IC50 for each of these?
1. CAP256-VRC26.08 (antibody, V domains shown) VH: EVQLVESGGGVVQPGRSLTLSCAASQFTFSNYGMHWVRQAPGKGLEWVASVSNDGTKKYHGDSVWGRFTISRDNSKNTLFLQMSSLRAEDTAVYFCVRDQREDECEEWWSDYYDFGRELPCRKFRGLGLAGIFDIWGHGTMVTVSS VL: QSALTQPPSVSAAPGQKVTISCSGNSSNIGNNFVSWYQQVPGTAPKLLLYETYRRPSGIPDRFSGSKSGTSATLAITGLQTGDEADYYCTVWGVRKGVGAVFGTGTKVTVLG
2. CAP256-VRC26.10 (antibody, V domains shown) VH: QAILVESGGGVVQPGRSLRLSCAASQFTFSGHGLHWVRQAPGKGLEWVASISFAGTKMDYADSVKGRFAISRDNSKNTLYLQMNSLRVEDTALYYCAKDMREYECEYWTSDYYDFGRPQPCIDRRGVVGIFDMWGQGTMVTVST VL: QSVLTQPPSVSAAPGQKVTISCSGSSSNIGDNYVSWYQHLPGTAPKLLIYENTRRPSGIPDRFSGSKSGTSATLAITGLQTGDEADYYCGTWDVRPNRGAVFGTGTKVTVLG
3. CAP256-VRC26.05 (antibody, V domains shown) VH: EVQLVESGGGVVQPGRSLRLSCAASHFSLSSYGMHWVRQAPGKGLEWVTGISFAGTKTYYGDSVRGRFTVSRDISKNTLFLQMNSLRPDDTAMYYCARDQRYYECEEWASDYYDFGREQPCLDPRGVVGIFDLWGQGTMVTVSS VL: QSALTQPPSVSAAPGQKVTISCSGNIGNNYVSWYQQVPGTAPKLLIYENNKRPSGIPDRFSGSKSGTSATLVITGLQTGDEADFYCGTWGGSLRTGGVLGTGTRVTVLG

Result:
1: 0.003 µg/mL; 2: 0.335 µg/mL; 3: 0.012 µg/mL

// each binder listed below needs its neutralization IC50
1. CAP256-VRC26.04 (antibody, V domains shown) VH: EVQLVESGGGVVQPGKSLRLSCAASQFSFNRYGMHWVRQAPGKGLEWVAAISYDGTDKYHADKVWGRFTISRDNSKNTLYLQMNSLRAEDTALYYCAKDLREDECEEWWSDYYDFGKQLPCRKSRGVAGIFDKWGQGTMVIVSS VL: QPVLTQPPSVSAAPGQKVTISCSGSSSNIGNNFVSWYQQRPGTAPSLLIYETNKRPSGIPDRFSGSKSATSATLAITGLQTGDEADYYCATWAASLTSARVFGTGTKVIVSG
2. CAP256-VRC26.12 (antibody, V domains shown) VH: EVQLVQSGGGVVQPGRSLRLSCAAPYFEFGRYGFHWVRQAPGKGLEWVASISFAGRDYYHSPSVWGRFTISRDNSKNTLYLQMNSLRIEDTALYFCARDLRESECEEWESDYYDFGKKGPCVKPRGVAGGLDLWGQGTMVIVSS VL: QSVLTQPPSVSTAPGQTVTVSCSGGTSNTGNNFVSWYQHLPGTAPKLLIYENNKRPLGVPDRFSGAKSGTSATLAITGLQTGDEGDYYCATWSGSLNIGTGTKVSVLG

Result:
1: 0.008 µg/mL; 2: > 50 µg/mL
